Reported solubility values for the following compounds.
- Assay summary: physchem
- Type: physicochemical
- Experimental setup: pH 1.2, aq. sol. pH 1.2
Square brackets hold non-standard residues; d marks the D form. Peptide text beside a SMILES is read from it. Gly(N-CH2-oxan-4-yl) = O=C(O)CNCC1CCOCC1; NCyclohexylmethylGly = O=C(O)CNCC1CCCCC1; NMeL = CN[C@@H](CC(C)C)C(=O)O; NMeA = CN[CH](C)C(=O)O; NEtG = CCNCC(=O)O
Provide only the numeric value, understood in µg/mL.

Illustrative cases are given below, each with its answer.
Compound	solubility (µg/mL)
CCN1CC(=O)NC(CC(C)C)C(=O)N(C)C(C)C(=O)NC(CC(C)C)C(=O)N2CCCC2C(=O)N(CC2CCOCC2)CC(=O)NC(CC(C)C)C(=O)N(C)C(C)C(=O)NC(C)C(=O)N2CCCC2C1=O (stereo not shown) [A03] (cyclo([NEtG]L[NMeA]LP[Gly(N-CH2-oxan-4-yl)]L[NMeA]AP); configuration not given here)	1800
CCN1CC(=O)N[C@@H](CC(C)C)C(=O)N(C)[C@@H](C)C(=O)N[C@@H](CC(C)C)C(=O)N2CCC[C@@H]2C(=O)N(CC2CCOCC2)CC(=O)N[C@@H](CC(C)C)C(=O)N(C)[C@@H](C)C(=O)N[C@@H](Cc2ccccc2)C(=O)N2CCC[C@@H]2C1=O [A09] (cyclo([NEtG]L[NMeA]L[dP][Gly(N-CH2-oxan-4-yl)]L[NMeA]F[dP]))	590

// solubility lookup, key: CCN1CC(=O)NC(CC(C)C)C(=O)N(C)C(C)C(=O)NC(CC(C)C)C(=O)N2CCCC2C(=O)N(CC2CCCCC2)CC(=O)NC(CC(C)C)C(=O)N(C)C(C)C(=O)NC(Cc2ccccc2)C(=O)N2CCCC2C1=O (stereo not shown) [A08] (cyclo([NEtG]L[NMeA]LP[NCyclohexylmethylGly]L[NMeA]FP); configuration not given here)
2.5

Note, next up: CCN1CC(=O)N[C@@H](CC(C)C)C(=O)N2CCC[C@@H]2C(=O)N(C)[C@@H](CC(C)C)C(=O)N[C@@H](C)C(=O)N(CC2CCOCC2)CC(=O)N[C@@H](Cc2ccccc2)C(=O)N2CCC[C@@H]2C(=O)N(C)[C@@H](CC(C)C)C(=O)N[C@@H](C)C1=O [B09] (cyclo(A[NEtG]L[dP][NMeL]A[Gly(N-CH2-oxan-4-yl)]F[dP][NMeL]))
2100

---

- Assay summary: physchem
- Type: physicochemical
- Experimental setup: pH 6.8, aqueous solubility at pH 6.8
Square brackets hold non-standard residues; d marks the D form. Peptide text beside a SMILES is read from it. NCyclohexylmethylGly = O=C(O)CNCC1CCCCC1; NMeL = CN[C@@H](CC(C)C)C(=O)O; NMeA = CN[CH](C)C(=O)O; NEtG = CCNCC(=O)O
Reported solubility values for the following molecules.
Provide only the numeric value, understood in mg/mL.

Molecule	Readout units	solubility
CCN1CC(=O)NC(CC(C)C)C(=O)N(C)C(C)C(=O)NC(CC(C)C)C(=O)N2CCCC2C(=O)N(CC2CCCCC2)CC(=O)NC(CC(C)C)C(=O)N(C)C(C)C(=O)NC(Cc2ccccc2)C(=O)N2CCCC2C1=O (centres unmarked) [A08] (cyclo([NEtG]L[NMeA]LP[NCyclohexylmethylGly]L[NMeA]FP); configuration not given here)	mg/mL	0.007

Pending molecule:
// solubility lookup, key: CCN1CC(=O)N[C@@H](CC(C)C)C(=O)N2CCC[C@@H]2C(=O)N(C)[C@@H](CC(C)C)C(=O)N[C@@H](C)C(=O)N(CC2CCCCC2)CC(=O)N[C@@H](Cc2ccccc2)C(=O)N2CCC[C@@H]2C(=O)N(C)[C@@H](CC(C)C)C(=O)N[C@@H](C)C1=O [B08] (cyclo([NEtG]L[dP][NMeL]A[NCyclohexylmethylGly]F[dP][NMeL]A))
0.21
